TARGET OF ASSAY: Angiotensin II receptor (Rattus norvegicus, UniProt P29089+P25095+P35351)
PROTOCOL DETAILS: Inhibition of radioligand [3H]angiotensin II binding to angiotensin II receptor of rat adrenal cortical membrane
MEASURED METRIC: IC50 (nM)
The figure you give is taken to be in nM; do not add the unit.

Reference set, count: 2
| COMPOUND | TARGET OF ASSAY | EXPERIMENTAL VALUE |
| --- | --- | --- |
| CCCCc1nc(Cl)c(CNC(=O)OC23C[C@H]4C[C@@H](C2)C[C@@H](C3)C4)n1Cc1ccc(-c2ccccc2C(=O)O)cc1 | Angiotensin II receptor (Rattus norvegicus, UniProt P29089+P25095+P35351) | 600 |
| CCCCc1nc(I)c(CO)n1Cc1ccc(-c2ccccc2C(=O)O)cc1 | Angiotensin II receptor (Rattus norvegicus, UniProt P29089+P25095+P35351) | 61 |

Inquiry: Tell me the measured IC50 of `CCCc1nc(C)c(CO)n1Cc1ccc(-c2ccccc2C(=O)O)cc1` , please.
Reply text: 1800

Inquiry: Tell me the measured IC50 of `CCCCc1nc(Cl)c(C(=O)N(C)C)n1Cc1ccc(-c2ccccc2C(=O)O)cc1` , please.
Reply text: 1300

Inquiry: Tell me the measured IC50 of `C=CCOC(=O)NCc1c(Cl)nc(CCCC)n1Cc1ccc(-c2ccccc2C(=O)O)cc1` , please.
Reply text: 390

Inquiry: Tell me the measured IC50 of `CCc1nc(Cl)c(CO)n1Cc1ccc(-c2ccccc2C(=O)O)cc1` , please.
Reply text: 1700

Inquiry: Tell me the measured IC50 of `CCCCc1nc(Cl)c(COC)n1Cc1ccc(-c2ccccc2Cc2nnn[nH]2)cc1` , please.
Reply text: 300

----------
Examples of compounds with documented ED30 follow.
System: Rattus norvegicus
PROTOCOL DETAILS: Effective dose that lowers the blood pressure 30 mmHg after intravenous administration
Format: functional
The figure you give is taken to be in mg/kg; do not add the unit.

| COMPOUND | MEASURED METRIC | UNIT ABBREVIATION | EXPERIMENTAL VALUE |
| --- | --- | --- | --- |
| CCCCc1nc(Cl)c(CO)n1Cc1ccc(-c2ccccc2-c2nnn[nH]2)cc1 | ED30 | mg/kg | 0.8 |
| CCCCc1nc(Cl)c(CNC(=O)c2cc3c(OCC(O)CNC(C)C)cccc3[nH]2)n1Cc1ccc(-c2ccccc2C(=O)O)cc1 (stereo not drawn) | ED30 | mg/kg | 1 |
| CCCCc1nc(Cl)c(CO)n1Cc1ccc(-c2ccc(OC)cc2-c2nn[nH]n2)cc1 | ED30 | mg/kg | 1.75 |

Inquiry: Tell me the measured ED30 of `CCCCc1nc(Cl)c(C(=O)O)n1Cc1ccc(-c2ccccc2C(=O)O)cc1` , please.
Reply text: 0.47

Inquiry: Tell me the measured ED30 of `CCCCc1nc(Cl)c(CO)n1Cc1ccc(-c2cc(OC)ccc2-c2nn[nH]n2)cc1` , please.
Reply text: 6.03

Inquiry: Tell me the measured ED30 of `CC/C=C/c1nc(Cl)c(CO)n1Cc1ccc(-c2ccccc2C(=O)O)cc1` , please.
Reply text: 1

Inquiry: Tell me the measured ED30 of `CCCc1nc(C)c(CO)n1Cc1ccc(-c2ccccc2C(=O)O)cc1` , please.
Reply text: 1.3

Inquiry: Tell me the measured ED30 of `CCCCc1nc(C(F)(F)F)c(CO)n1Cc1ccc(-c2ccccc2-c2nn[nH]n2)cc1` , please.
Reply text: 0.53
